- Test system: 186277-243-T-J2-PDC multi-cell spheroid viability;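 also: spheroids exposed to compounds for seven days before viability reading; 100% = DMSO vehicle control viability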
- EXPERIMENTAL_PROTOCOL: Anticancer human tumor 186277-243-T-J2-PDC patient-derived colon adenocarcinoma cell line growth inhibition [PI3K]
- SETUP_CONDITIONS: second compound 0.1 µM; first compound 0.03 µM; stronger effect = lower value
- From the text: Combinatorial screen of targeted agents with the PI3K inhibitors inavolisib, alpelisib, duvelisib, and copanlisib in multi-cell type tumor spheroids A high-throughput screen of multi-cell type tumor spheroids was designed to identify active combinations of targeted small molecules and PI3K pathway inhibitors. […] Compounds. […] If the clinical Cmax for an agent had not been determined, the highest concentration tested was 10 microM. […]
Measured viability, T/C accompanies every entry in the list below.

{"MOLECULE": "Cn1cnc2c(F)c(Nc3ccc(Br)cc3Cl)c(C(=O)NOCCO)cc21 + CC(Nc1ncnc2nc[nH]c12)c1cc2cccc(Cl)c2c(=O)n1-c1ccccc1", "viability, T/C": "92.3%"}
{"MOLECULE": "Cn1cnc2c(F)c(Nc3ccc(Br)cc3Cl)c(C(=O)NOCCO)cc21 + COc1c(OCCCN2CCOCC2)ccc2c3n(c(=NC(=O)c4cnc(N)nc4)nc12)CCN3", "viability, T/C": "7.23%"}
{"MOLECULE": "Cn1cnc2c(F)c(Nc3ccc(Br)cc3Cl)c(C(=O)NOCCO)cc21 + Cc1nc(NC(=O)N2CCCC2C(N)=O)sc1-c1ccnc(C(C)(C)C(F)(F)F)c1", "viability, T/C": "67.8%"}
{"MOLECULE": "Cn1cnc2c(F)c(Nc3ccc(Br)cc3Cl)c(C(=O)NOCCO)cc21 + CC(Nc1ccc2c(c1)OCCn1cc(N3C(=O)OCC3C(F)F)nc1-2)C(N)=O", "viability, T/C": "33.8%"}

Where these numbers come from: PubChem BioAssay AID1963983
